- Tested on: mice bearing PSMA-expressing LNCAP cancer xenografts
- Procedure Details: Biodistribution of 68Ga-labeled compounds
- Type: in vivo
- Assay Context: 3 h post-injection
Binarize Stomach uptake at 0.1 % ID/g; below is 1, at or above is 0.

query: Dear colleague, could you confirm whether Stomach uptake of Cc1ccc(CCCC(=O)NCC(=O)N[C@@H](CCCCNC(=O)CN2CCN(CC(=O)[O-])CCN(CC(=O)[O-])CCN(CC(=O)[O-])CC2)C(=O)NC[C@H]2CC[C@H](C(=O)N[C@@H](Cc3ccc4ccccc4c3)C(=O)NCCCC[C@H](NC(=O)N[C@@H](CCC(=O)O)C(=O)O)C(=O)O)CC2)cc1.[68Ga+3] [^68Ga-HTK03090] falls below 0.1 % ID/g? Thanks.
result: 0

query: Dear colleague, could you confirm whether Stomach uptake of COc1ccc(CCCC(=O)NCC(=O)N[C@@H](CCCCNC(=O)CN2CCN(CC(=O)[O-])CCN(CC(=O)[O-])CCN(CC(=O)[O-])CC2)C(=O)NC[C@H]2CC[C@H](C(=O)N[C@@H](Cc3ccc4ccccc4c3)C(=O)NCCCC[C@H](NC(=O)N[C@@H](CCC(=O)O)C(=O)O)C(=O)O)CC2)cc1.[68Ga+3] [^68Ga-HTK03086] falls below 0.1 % ID/g? Thanks.
result: 0

query: Given O=C([O-])CN1CCN(CC(=O)[O-])CCN(CC(=O)NCCCC[C@H](NC(=O)CNC(=O)CCCc2ccc(F)cc2)C(=O)NC[C@H]2CC[C@H](C(=O)N[C@@H](Cc3ccc4ccccc4c3)C(=O)NCCCC[C@H](NC(=O)N[C@@H](CCC(=O)O)C(=O)O)C(=O)O)CC2)CCN(CC(=O)[O-])CC1.[68Ga+3] [^68Ga-HTK03085] , is recorded Stomach uptake strictly lower than 0.1 % ID/g?
result: 0

query: I wonder whether O=C([O-])CN1CCN(CC(=O)[O-])CCN(CC(=O)NCC2CCC(C(=O)NC(Cc3c4ccccc4cc4ccccc34)C(=O)NCCCCC(NC(=O)NC(CCC(=O)O)C(=O)O)C(=O)O)CC2)CCN(CC(=O)[O-])CC1.[68Ga+3] (stereo not drawn) [^68Ga-HTK03041] has Stomach uptake below 0.1 % ID/g. Can you tell?
result: 0

query: Confirm or reject: Stomach uptake of O=C([O-])CN1CCN(CC(=O)[O-])CCN(CC(=O)NCCCC[C@H](NC(=O)CNC(=O)CCc2ccccc2)C(=O)NC[C@H]2CC[C@H](C(=O)N[C@@H](Cc3ccc4ccccc4c3)C(=O)NCCCC[C@H](NC(=O)N[C@@H](CCC(=O)O)C(=O)O)C(=O)O)CC2)CCN(CC(=O)[O-])CC1.[68Ga+3] [^68Ga-HTK03082] lies strictly below 0.1 % ID/g
result: 1

query: Strictly below 0.1 % ID/g in Stomach uptake? O=C([O-])CN1CCN(CC(=O)[O-])CCN(CC(=O)NCCCC[C@H](NC(=O)CNC(=O)CCCc2ccccc2)C(=O)NC[C@H]2CC[C@H](C(=O)N[C@@H](Cc3ccc4ccccc4c3)C(=O)NCCCC[C@H](NC(=O)N[C@@H](CCC(=O)O)C(=O)O)C(=O)O)CC2)CCN(CC(=O)[O-])CC1.[68Ga+3] [^68Ga-HTK03056]
result: 0

----------
- Tested on: mice bearing PSMA-expressing LNCAP cancer xenografts
- Procedure Details: Biodistribution of 68Ga-labeled compounds
- Format: in vivo
- Assay Context: 1 h post-injection
Measure: Stomach uptake
Form entry: enter the amount, then its unit.

query: Entry under review: COc1ccc(CCCC(=O)NCC(=O)N[C@@H](CCCCNC(=O)CN2CCN(CC(=O)[O-])CCN(CC(=O)[O-])CCN(CC(=O)[O-])CC2)C(=O)NC[C@H]2CC[C@H](C(=O)N[C@@H](Cc3ccc4ccccc4c3)C(=O)NCCCC[C@H](NC(=O)N[C@@H](CCC(=O)O)C(=O)O)C(=O)O)CC2)cc1.[68Ga+3] [^68Ga-HTK03086] . Reported Stomach uptake?
result: 0.34 ± 0.04 % ID/g

query: Reported Stomach uptake, compound O=C([O-])CN1CCN(CC(=O)[O-])CCN(CC(=O)NCCCC[C@H](NC(=O)CNC(=O)CCCc2ccc(Cl)cc2)C(=O)NC[C@H]2CC[C@H](C(=O)N[C@@H](Cc3ccc4ccccc4c3)C(=O)NCCCC[C@H](NC(=O)N[C@@H](CCC(=O)O)C(=O)O)C(=O)O)CC2)CCN(CC(=O)[O-])CC1.[68Ga+3] [^68Ga-HTK03055] : ____
result: 0.62 ± 0.09 % ID/g

query: Suppose we examine the compound O=C([O-])CN1CCN(CC(=O)[O-])CCN(CC(=O)NCCCC[C@H](NC(=O)CNC(=O)CCc2ccccc2)C(=O)NC[C@H]2CC[C@H](C(=O)N[C@@H](Cc3ccc4ccccc4c3)C(=O)NCCCC[C@H](NC(=O)N[C@@H](CCC(=O)O)C(=O)O)C(=O)O)CC2)CCN(CC(=O)[O-])CC1.[68Ga+3] [^68Ga-HTK03082] ; what Stomach uptake value has been reported?
result: 0.10 ± 0.03 % ID/g

query: // Stomach uptake lookup, key: O=C([O-])CN1CCN(CC(=O)[O-])CCN(CC(=O)NCCCC[C@H](NC(=O)CNC(=O)CCCc2ccc(F)cc2)C(=O)NC[C@H]2CC[C@H](C(=O)N[C@@H](Cc3ccc4ccccc4c3)C(=O)NCCCC[C@H](NC(=O)N[C@@H](CCC(=O)O)C(=O)O)C(=O)O)CC2)CCN(CC(=O)[O-])CC1.[68Ga+3] [^68Ga-HTK03085]
result: 0.24 ± 0.05 % ID/g

----------
- System: mice bearing PSMA-expressing LNCAP cancer xenografts
- Procedure Details: Biodistribution of 68Ga-labeled compounds
- Format: in vivo
- Assay Context: 1 h post-injection
Measure: Brain uptake (% ID/g)
Field: numeric (% ID/g). Do not append units.

query: Fill in the blank: the reported Brain uptake of O=C([O-])CN1CCN(CC(=O)[O-])CCN(CC(=O)NCCCC[C@H](NC(=O)CNC(=O)CCc2ccccc2)C(=O)NC[C@H]2CC[C@H](C(=O)N[C@@H](Cc3ccc4ccccc4c3)C(=O)NCCCC[C@H](NC(=O)N[C@@H](CCC(=O)O)C(=O)O)C(=O)O)CC2)CCN(CC(=O)[O-])CC1.[68Ga+3] [^68Ga-HTK03082] is ____.
result: 0.03

query: Returns the measured Brain uptake for the input molecule. Input: O=C([O-])CN1CCN(CC(=O)[O-])CCN(CC(=O)NCCCC[C@H](NC(=O)CNC(=O)CCCc2ccccc2)C(=O)NC[C@H]2CC[C@H](C(=O)N[C@@H](Cc3ccc4ccccc4c3)C(=O)NCCCC[C@H](NC(=O)N[C@@H](CCC(=O)O)C(=O)O)C(=O)O)CC2)CCN(CC(=O)[O-])CC1.[68Ga+3] [^68Ga-HTK03056]
result: 0.10

query: Give its Brain uptake value. Item: Cc1ccc(CCCC(=O)NCC(=O)N[C@@H](CCCCNC(=O)CN2CCN(CC(=O)[O-])CCN(CC(=O)[O-])CCN(CC(=O)[O-])CC2)C(=O)NC[C@H]2CC[C@H](C(=O)N[C@@H](Cc3ccc4ccccc4c3)C(=O)NCCCC[C@H](NC(=O)N[C@@H](CCC(=O)O)C(=O)O)C(=O)O)CC2)cc1.[68Ga+3] [^68Ga-HTK03090]
result: 0.20

query: Returns the measured Brain uptake for the input molecule. Input: O=C([O-])CN1CCN(CC(=O)[O-])CCN(CC(=O)NCCCC[C@H](NC(=O)CNC(=O)CCCc2ccc(Br)cc2)C(=O)NC[C@H]2CC[C@H](C(=O)N[C@@H](Cc3ccc4ccccc4c3)C(=O)NCCCC[C@H](NC(=O)N[C@@H](CCC(=O)O)C(=O)O)C(=O)O)CC2)CCN(CC(=O)[O-])CC1.[68Ga+3] [^68Ga-HTK03058]
result: 0.36

query: Look up Brain uptake for this molecule: O=C([O-])CN1CCN(CC(=O)[O-])CCN(CC(=O)NCCCC[C@H](NC(=O)CNC(=O)CCCc2ccc(Cl)cc2)C(=O)NC[C@H]2CC[C@H](C(=O)N[C@@H](Cc3ccc4ccccc4c3)C(=O)NCCCC[C@H](NC(=O)N[C@@H](CCC(=O)O)C(=O)O)C(=O)O)CC2)CCN(CC(=O)[O-])CC1.[68Ga+3] [^68Ga-HTK03055]
result: 0.29

query: Give its Brain uptake value. Item: O=C([O-])CN1CCN(CC(=O)[O-])CCN(CC(=O)NCCCC[C@H](NC(=O)CNC(=O)CCCc2ccc([N+](=O)[O-])cc2)C(=O)NC[C@H]2CC[C@H](C(=O)N[C@@H](Cc3ccc4ccccc4c3)C(=O)NCCCC[C@H](NC(=O)N[C@@H](CCC(=O)O)C(=O)O)C(=O)O)CC2)CCN(CC(=O)[O-])CC1.[68Ga+3] [^68Ga-HTK03089]
result: 0.09
